test system: HuH7; assay: CellTiter-Glo luminescent cell viability (proliferation) assay, HuH7; type: cell-based; details: Huh-7; inhibition of HuH7 (human hepatoma) proliferation, 48 hours incubation, 10% FCS
Value type: EC50 (µM)

* C#CCOC(=O)N1CCC(c2nc(C(=O)Nc3cc(-c4ccccc4)n[nH]3)cs2)CC1 | 2.27
* COc1ccc(C(=O)N2CCC(c3nc(C(=O)Nc4cc(-c5cccs5)n[nH]4)cs3)CC2)c(OC)c1OC | 2.19

(I) O=C(Nc1cc(-c2ccccc2)[nH]n1)c1csc(C2CCN(C(=O)Cc3c[nH]c4ccccc34)CC2)n1
(II) Cn1nc(-c2cccs2)cc1NC(=O)c1csc(C2CCN(C(=O)c3ccccc3C(F)(F)F)CC2)n1
Between item I and item II , which reported EC50 is smaller? Record your answer as the label of the chosen record.
I

(A) O=C(NCc1ccccc1[N+](=O)[O-])c1csc(C2CCN(C(=O)Cc3c[nH]c4ccccc34)CC2)n1
(B) O=C(Nc1nccs1)c1csc(C2CCN(C(=O)Cc3c[nH]c4ccccc34)CC2)n1
(C) O=C(Nc1cccc(-c2cnco2)c1)c1csc(C2CCN(C(=O)Cc3c[nH]c4ccccc34)CC2)n1
(D) Cc1nc(C)c(C(=O)N2CCC(c3nc(C(=O)Nc4cc(-c5ccccc5)nn4C)cs3)CC2)s1
// sort entries: EC50, high to low Labels, requested order.
C, D, A, B
(C: 12.1 µM, D: 5.4 µM, A: 2.98 µM, B: 1.54 µM)

====

test system: HepG2; experiment: CellTiter-Glo luminescent cell viability (proliferation) assay, HepG2; format: cell-based; settings: HepG2 (human hepatoblastoma), 48 hours incubation, 10% FCS; read-out: inhibits proliferation
Value type: EC50 (µM)
Reply with just the number (in µM).

Give me measured EC50, please, for this compound: CC(C)OC(=O)c1ccc(NC(=O)c2csc(C3CCN(C(=O)CC4C=Nc5ccccc54)CC3)n2)cc1 (stereo not shown)
10.8

====

test system: HeLa; assay: CellTiter-Glo luminescent cell viability (proliferation) assay, HeLa; assay type: cell-based; settings: Hela (human ovarian carcinoma [sic]) proliferation, 48 hours incubation, 10% FCS
Value type: EC50 (µM)

Some compounds with known EC50 results, for comparison:
- COc1ccc(CNC(=O)c2csc(C3CCN(C(=O)CC4C=Nc5ccccc54)CC3)n2)cc1OC (stereo not shown) [IV]: 10.3
- O=C(Nc1cc(-c2cccs2)n[nH]1)c1csc(C2CCN(C(=O)N3CCN(c4ccccn4)CC3)CC2)n1 [XXXIII]: 11.6
- Cc1ccc2cc(NC(=O)c3csc(C4CCN(C(=O)CC5C=Nc6ccccc65)CC4)n3)ccc2n1 (stereo not shown) [V]: 8.79
- O=C(NC1CCc2ccccc21)c1csc(C2CCN(C(=O)CC3C=Nc4ccccc43)CC2)n1 (stereo not shown) [XLVII]: 13.6

(a) CC(C)OC(=O)c1ccc(NC(=O)c2csc(C3CCN(C(=O)CC4C=Nc5ccccc54)CC3)n2)cc1 (stereo not shown) [XI]
(b) O=C(Nc1ccc(F)c([N+](=O)[O-])c1)c1csc(C2CCN(C(=O)Cc3c[nH]c4ccccc34)CC2)n1 [II]
Between item a and item b , which reported EC50 is smaller? Record your answer as the label of the chosen record.
b

(a) C=CCSc1ncccc1C(=O)N1CCC(c2nc(C(=O)Nc3cc(-c4ccccc4)nn3C)cs2)CC1 [XXXI]
(b) COc1ccc(NC(=O)c2csc(C3CCN(C(=O)NC4C=C(c5ccccc5)N=N4)CC3)n2)cn1 (stereo not shown) [XIII]
Which has the higher EC50, a or b ? Record your answer as the label of the chosen record.
a

(a) CC(C)(Cc1ccc(F)cc1)NC(=O)c1csc(C2CCN(C(=O)CC3C=Nc4ccccc43)CC2)n1 (stereo not shown) [VI]
(b) O=C(CC1C=Nc2ccccc21)N1CCC(c2nc(C(=O)N3CCN(c4ncccn4)CC3)cs2)CC1 (stereo not shown) [LIII]
Between item a and item b , which reported EC50 is smaller? Record your answer as the label of the chosen record.
a
(a: 13.5 µM, b: 23.6 µM)

====

system: DAN-G; assay: CellTiter-Glo luminescent cell viability (proliferation) assay, DAN-G; format: cell-based; settings: DAN-G (human pancreatic carcinoma) proliferation, 48 hours incubation, 10% FCS
Measured pEC50 by item
By convention, pEC50 is the negative base-10 log of a molar concentration.

Some compounds with known pEC50 results, for comparison:
* O=C(NCc1ccccc1[N+](=O)[O-])c1csc(C2CCN(C(=O)Cc3c[nH]c4ccccc34)CC2)n1 | 5.05
* Cn1nc(-c2ccccc2)cc1NC(=O)c1csc(C2CCN(C(=O)Cc3c[nH]c4ccccc34)CC2)n1 | 5.15
* C=CCSc1ncccc1C(=O)N1CCC(c2nc(C(=O)Nc3cc(-c4ccccc4)nn3C)cs2)CC1 | 5.45
* O=C(Nc1cc(-c2cccs2)n[nH]1)c1csc(C2CCN(C(=O)N3CCN(c4ccccn4)CC3)CC2)n1 | 4.86
* O=C(Nc1ccc2ncccc2c1)c1csc(C2CCN(C(=O)CC3C=Nc4ccccc43)CC2)n1 (centres unmarked) | 5.70
* O=C(Nc1ccc(F)c(F)c1)c1csc(C2CCN(C(=O)CC3C=Nc4ccccc43)CC2)n1 (centres unmarked) | 5.59

Give me measured pEC50, please, for this compound: COc1ccc(C(=O)N2CCC(c3nc(C(=O)Nc4cc(-c5ccco5)n[nH]4)cs3)CC2)c(OC)c1OC
4.77

Give me measured pEC50, please, for this compound: O=C(NC1CCc2ccccc21)c1csc(C2CCN(C(=O)CC3C=Nc4ccccc43)CC2)n1 (centres unmarked)
5.01

Give me measured pEC50, please, for this compound: Cc1ccc(S(=O)(=O)N2CCC(c3nc(C(=O)Nc4nnc(C(F)(F)F)s4)cs3)CC2)cc1Cl
4.87

Give me measured pEC50, please, for this compound: CC(C)OC(=O)c1ccc(NC(=O)c2csc(C3CCN(C(=O)CC4C=Nc5ccccc54)CC3)n2)cc1 (centres unmarked)
5.12

Give me measured pEC50, please, for this compound: Cc1nc(NC(=O)c2csc(C3CCN(C(=O)Cc4c[nH]c5ccccc45)CC3)n2)sc1C
5.25

Give me measured pEC50, please, for this compound: O=C(Nc1nccs1)c1csc(C2CCN(C(=O)Cc3c[nH]c4ccccc34)CC2)n1
5.60

====

tested on: DAN-G; test: CellTiter-Glo luminescent cell viability (proliferation) assay, DAN-G; format: cell-based; settings: DAN-G (human pancreatic carcinoma) proliferation, 48 hours incubation, 10% FCS
Measured EC50 by item
Reply with just the number (in µM).

Some compounds with known EC50 results, for comparison:
* O=C(Nc1ccc(F)c([N+](=O)[O-])c1)c1csc(C2CCN(C(=O)Cc3c[nH]c4ccccc34)CC2)n1 [II] | 3.16
* COc1ccc(CNC(=O)c2csc(C3CCN(C(=O)CC4C=Nc5ccccc54)CC3)n2)cc1OC (stereo not shown) [IV] | 7.52
* COc1ccc(C(=O)N2CCC(c3nc(C(=O)NC4C=C(c5ccccc5)N=N4)cs3)CC2)c(OC)c1OC (stereo not shown) [XX] | 7.8

Next item in the queue.
Give me measured EC50, please, for this compound: Cc1ccc(NC(=O)c2csc(C3CCN(C(=O)CC4C=Nc5ccccc54)CC3)n2)cc1F (stereo not shown) [XV]
3.81

====

test system: HeLa; experiment: CellTiter-Glo luminescent cell viability (proliferation) assay, HeLa; format: cell-based; conditions: Hela (human ovarian carcinoma [sic]) proliferation, 48 hours incubation, 10% FCS
Value type: EC50 (µM)

* Cc1nc(C)c(C(=O)N2CCC(c3nc(C(=O)NC4C=C(c5cccs5)N=N4)cs3)CC2)s1 (centres unmarked) [XVI] | 10.5
* Cc1nc(NC(=O)c2csc(C3CCN(C(=O)Cc4c[nH]c5ccccc45)CC3)n2)sc1C [XVII] | 23.5
* O=C(Nc1nccs1)c1csc(C2CCN(C(=O)Cc3c[nH]c4ccccc34)CC2)n1 [X] | 18
* Cc1ccc(NC(=O)c2csc(C3CCN(C(=O)CC4C=Nc5ccccc54)CC3)n2)cc1F (centres unmarked) [XV] | 17.2
* COc1ccc(C(=O)N2CCC(c3nc(C(=O)NC4C=C(c5ccccc5)N=N4)cs3)CC2)c(OC)c1OC (centres unmarked) [XX] | 10.3
* COc1ccc(C(=O)N2CCC(c3nc(C(=O)Nc4cc(-c5ccco5)n[nH]4)cs3)CC2)c(OC)c1OC [LVI] | 10.5

(P) O=C(NCc1ccccc1[N+](=O)[O-])c1csc(C2CCN(C(=O)Cc3c[nH]c4ccccc34)CC2)n1 [XL]
(Q) O=C(Nc1ccc2ncccc2c1)c1csc(C2CCN(C(=O)CC3C=Nc4ccccc43)CC2)n1 (centres unmarked) [III]
Which has the higher EC50, P or Q ? Record your answer as the label of the chosen record.
P

====

test system: HeLa; assay: CellTiter-Glo luminescent cell viability (proliferation) assay, HeLa; type: cell-based; conditions: Hela (human ovarian carcinoma [sic]) proliferation, 48 hours incubation, 10% FCS
Value type: EC50 (µM)

* O=C(Nc1ccc(F)c(F)c1)c1csc(C2CCN(C(=O)CC3C=Nc4ccccc43)CC2)n1 (stereo not drawn) | 8.91
* Cn1nc(-c2ccccc2)cc1NC(=O)c1csc(C2CCN(C(=O)Cc3c[nH]c4ccccc34)CC2)n1 | 12.5
* Cc1ccc(S(=O)(=O)N2CCC(c3nc(C(=O)Nc4nnc(C(F)(F)F)s4)cs3)CC2)cc1Cl | 11.1
